Hi there, I'd appreciate the recorded viability at 24 h, 20 µM for every entry that follows.
procedure-summary: Cytotoxicity against human HepG2 cells assessed as cell viability at 20 uM after 24 hrs by CCK8 assay
Type: toxicity, cell-based
recorded-conditions: read-out: Activity

Consider the molecule C=C1[C@@H](OC(C)=O)[C@H]2[C@@H](OC(C)=O)[C@](C)(OC(C)=O)C[C@]2(OC(C)=O)C(=O)[C@H](C)/C=C/C(C)(C)C(=O)[C@@H](OC(=O)C(C)C)[C@H]1OC(=O)CC and give its recorded viability at 24 h, 20 µM.
> 95%

Answer with the recorded viability at 24 h, 20 µM for the molecule listed here: C=C1[C@@H](OC(C)=O)[C@H]2[C@@H](OC(=O)[C@@H](C)CC)[C@@H](C)C[C@]2(OC(C)=O)C(=O)[C@H](C)/C=C/C(C)(C)[C@H](OC(C)=O)[C@@H](OC(C)=O)[C@H]1OC(C)=O
> 95%

Using known records, supply viability at 24 h, 20 µM for C=C1[C@@H](OC(C)=O)[C@H]2[C@@H](OC(C)=O)[C@](C)(OC(C)=O)C[C@]2(OC(C)=O)C(=O)[C@H](C)/C=C/C(C)(C)C(=O)[C@@H](OC(=O)C(C)C)[C@H]1OC(=O)C(C)C
> 95%

State, in one line, measured viability at 24 h, 20 µM of C=C1[C@@H](OC(C)=O)[C@H]2[C@@H](OC(C)=O)[C@@H](C)C[C@]2(OC(C)=O)C(=O)[C@H](C)/C=C/C(C)(C)C(=O)C[C@H]1OC(C)=O
> 95%

###

Provide the recorded viability at 24 h, 20 µM for the entries that follow.
procedure-summary: Cytotoxicity against human HepG2 cells assessed as cell viability at 20 uM after 24 hrs by CCK8 assay
Type: toxicity, cell-based
recorded-conditions: read-out: Activity

Answer with the recorded viability at 24 h, 20 µM of C=C1[C@@H](OC(C)=O)[C@H]2[C@@H](OC(C)=O)[C@](C)(OC(=O)Cc3ccccc3)C[C@]2(OC(C)=O)C(=O)[C@H](C)/C=C/C(C)(C)[C@H](OC(=O)c2cccnc2)C[C@H]1OC(=O)C(C)C only.
> 95%

Read off the recorded viability at 24 h, 20 µM for C=C1[C@@H](OC(C)=O)[C@H]2[C@@H](OC(C)=O)[C@](C)(OC(C)=O)C[C@]2(OC(C)=O)C(=O)[C@H](C)/C=C/C(C)(C)C(=O)[C@@H](OC(C)=O)[C@H]1OC(=O)C(C)C
> 95%

Retrieve viability at 24 h, 20 µM measured for C=C1[C@@H](OC(C)=O)[C@H]2[C@@H](OC(C)=O)[C@@H](C)C[C@]2(OC(C)=O)C(=O)[C@H](C)/C=C/C(C)(C)C(=O)C[C@H]1OC(=O)C(C)C and print it.
> 95%
